Where these numbers come from: patent US20260103465A1

// reported MDCK Permeability (MDR1-MDCK); Mean; P. Ratio(B-A/A-B) Efflux Ratio per item
tested on: MDR1-MDCK cell monolayers; assay: MDR1/MDCK permeability assay; assay type: in vitro ADME; settings: Papp B-A/A-B; Table 4
observed property: MDCK Permeability (MDR1-MDCK); Mean; P. Ratio(B-A/A-B) Efflux Ratio

>>> measured("CCC1(c2cccc(O)c2)C2=C(CC(C)(C)CC2=O)Nc2ncccc21 (single isomer, unassigned) [Compound 1004A]")
37
>>> measured("CCC1(c2cccc(-c3ccccn3)c2)C2=C(CC(C)(C)CC2=O)Nc2ncccc21 (single isomer, unassigned) [Compound 1016A]")
6.9
>>> measured("CCC1(c2cccc(-c3ccncc3C)c2)C2=C(CC(C)(C)CC2=O)Nc2ncc(F)cc21 (single isomer, unassigned) [Compound 1031B]")
3.6
>>> measured("CCC1(c2cccc(-c3cn(C)nc3C)c2)C2=C(CC(C)(C)CC2=O)Nc2ncccc21 (single isomer, unassigned) [Compound 1023A]")
9.0
>>> measured("CCC1(c2ccccc2)C2=C(CC(C)(C)CC2=O)Nc2ncc(F)cc21 (single isomer, unassigned) [Compound 114A]")
2.0
>>> measured("CCC1(c2cccc(-c3cn(C)nc3C)c2)C2=C(CC(C)(C)CC2=O)Nc2ncc(F)cc21 (single isomer, unassigned) [Compound 1032B]")
11
>>> measured("CCC1(c2cccc(O)c2)C2=C(CC(C)(C)CC2=O)Nc2ncc(F)cc21 (single isomer, unassigned) [Compound 1010B]")
48
>>> measured("CCC1(c2cccc(-c3ccncc3)c2)C2=C(CC(C)(C)CC2=O)Nc2ncccc21 (single isomer, unassigned) [Compound 1017A]")
4.6
>>> measured("CCC1(c2cccc(-c3cccnc3)c2)C2=C(CC(C)(C)CC2=O)Nc2ncccc21 (single isomer, unassigned) [Compound 1015A]")
9.5
>>> measured("CCC1(c2cccc(C(C)C)c2)C2=C(CC(C)(C)CC2=O)Nc2ncccc21 (single isomer, unassigned) [Compound 1011B]")
1.9

----------
biological target: GSK3b (GST-full length GSK3b) (Homo sapiens, UniProt P49841); construct: GST-full length GSK3b: [SignalChem G08-9G]; purchased SignalChem G08-9G; experiment: GSK3b TR-FRET kinase inhibition assay; assay type: biochemical; details: 1 mM ATP; Table 3; read-out: GSK3b TR-FRET 1 mM ATP Average IC50
Sequence (P49841 whole entry): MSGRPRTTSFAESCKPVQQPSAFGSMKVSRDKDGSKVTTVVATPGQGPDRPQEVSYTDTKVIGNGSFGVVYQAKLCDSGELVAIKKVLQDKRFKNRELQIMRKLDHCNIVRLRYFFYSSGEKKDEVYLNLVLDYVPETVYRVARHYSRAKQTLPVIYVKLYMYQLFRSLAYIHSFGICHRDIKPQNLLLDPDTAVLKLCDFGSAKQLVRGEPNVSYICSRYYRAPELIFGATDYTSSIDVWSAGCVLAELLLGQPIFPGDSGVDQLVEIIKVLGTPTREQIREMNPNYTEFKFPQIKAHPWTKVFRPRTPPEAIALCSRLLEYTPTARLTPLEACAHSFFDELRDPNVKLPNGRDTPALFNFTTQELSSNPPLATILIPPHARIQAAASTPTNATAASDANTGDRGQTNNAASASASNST
pIC50: −log10 of the molar value.
observed property: pIC50

>>> measured("CC1(C)CC(=O)C2=C(C1)Nc1ncc(C3CCC3)cc1C2(C)c1ccccc1 (single isomer, unassigned) [Compound 122A]")
"4.70 to 5.30"
>>> measured("CCc1cnc2c(c1)C(C)(c1ccccc1)C1=C(CC(C)(C)CC1=O)N2 (single isomer, unassigned) [Compound 113A]")
"5.30 to 6.00"
>>> measured("CC1(C)CC(=O)C2=C(C1)Nc1ncccc1C2(C)c1cccc(-c2ccncc2N2CCCC2)c1 (single isomer, unassigned) [Compound 158A]")
"6.00 to 7.00"
>>> measured("CC1(C)CC(=O)C2=C(C1)Nc1ncc(F)c(C3CC3)c1C2(C)c1cccc(S(C)(=O)=O)c1 (single isomer, unassigned) [Compound 153B]")
"4.70 to 5.30"
>>> measured("Cc1ccnc2c1C(C)(c1ccccc1)C1=C(CC(C)(C)CC1=O)N2 (single isomer, unassigned) [Compound 104A]")
"5.30 to 6.00"
>>> measured("CC(C)(C)Cc1cnc2c(c1)C(C)(c1ccccc1)C1=C(CC(C)(C)CC1=O)N2 (single isomer, unassigned) [Compound 129A]")
"4.70 to 5.30"
>>> measured("Cc1nn(C)c(C)c1-c1cccc(C2(C)C3=C(CC(C)(C)CC3=O)Nc3ncc(C(F)(F)F)cc32)c1 (single isomer, unassigned) [Compound 170B]")
"5.30 to 6.00"
>>> measured("CC1(C)CC(=O)C2=C(C1)Nc1ncccc1C2(C)c1ccccc1 (single isomer, unassigned) [Compound 101A]")
"5.30 to 6.00"
>>> measured("COc1cncc(F)c1-c1cccc(C2(C)C3=C(CC(C)(C)CC3=O)Nc3ncc(F)cc32)c1 (single isomer, unassigned) [Compound 156A]")
"6.00 to 7.00"
>>> measured("COc1cncc(F)c1-c1cccc(C2(C)C3=C(CC(C)(C)CC3=O)Nc3ncc(C(F)(F)F)cc32)c1 (single isomer, unassigned) [Compound 174A]")
"5.30 to 6.00"
>>> measured("CCC1(c2cccc(-c3ccnc(C)c3C)c2)C2=C(CC(C)(C)CC2=O)Nc2ncccc21 (single isomer, unassigned) [Compound 147A]")
"5.30 to 6.00"
>>> measured("CC1(C)CC(=O)C2=C(C1)Nc1ncc(F)c(C#N)c1C2(C)c1cccc(S(C)(=O)=O)c1 (single isomer, unassigned) [Compound 148A]")
"≥ 7.00"
